The measurements presented in this section are drawn from patent EP1230261B1.

Target: HLA-A*0201 molecules on T2 cells (CEMX721.174.T2) (human)
Test: cell-based or functional assay
For each record, write down the corresponding Competitor activity [mM] 50%.
Numbers only, in mM.

Worked cases, Competitor activity [mM] 50% given:
SLLMWITQCFL [NY-ESO-1 157-167 peptide SLLMWITQCFL (SEQ ID NO:1)]	0.02
SALMWITQA [peptide SALMWITQA (SEQ ID NO:21)]	0.01
SLLMWITAA [peptide SLLMWITAA (SEQ ID NO:27)]	0.00018
SLLMWITQV [NY-ESO-1 157-C165V peptide SLLMWITQV (SEQ ID NO:8)]	6e-05

Req: Quote Competitor activity [mM] 50% reported for SLAMWITQA [peptide SLAMWITQA (SEQ ID NO:22)] please.
Resp: 0.001
